biological target: R171C RIPK2 (Homo sapiens, UniProt O43353, R171C); experiment: in vitro RIPK2 enzyme inhibition
Sequence (O43353 whole entry R171C): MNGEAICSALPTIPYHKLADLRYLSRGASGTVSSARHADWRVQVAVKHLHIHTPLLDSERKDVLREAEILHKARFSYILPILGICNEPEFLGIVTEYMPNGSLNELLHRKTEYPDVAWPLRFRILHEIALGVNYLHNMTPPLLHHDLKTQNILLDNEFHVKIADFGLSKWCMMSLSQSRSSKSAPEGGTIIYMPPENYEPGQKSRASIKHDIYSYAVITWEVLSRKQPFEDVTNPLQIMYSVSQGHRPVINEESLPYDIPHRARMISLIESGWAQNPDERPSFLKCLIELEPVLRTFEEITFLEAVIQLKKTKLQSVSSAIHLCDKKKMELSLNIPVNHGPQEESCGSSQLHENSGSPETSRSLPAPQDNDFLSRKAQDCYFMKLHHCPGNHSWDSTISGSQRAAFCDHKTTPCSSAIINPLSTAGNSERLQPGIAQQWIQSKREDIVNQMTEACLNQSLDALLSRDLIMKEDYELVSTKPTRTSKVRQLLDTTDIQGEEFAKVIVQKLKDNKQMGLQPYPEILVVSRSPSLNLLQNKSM
observation_type: pIC50
By convention, pIC50 is the negative base-10 log of a molar concentration.

Record CNC(=O)c1cc(Oc2ccc(NC(=O)Nc3ccc(SCC(=O)O)c(F)c3)c(F)c2)ccn1 [CSR35] has R171C RIPK2 (Homo sapiens, UniProt O43353, R171C) pIC50 equal to 5.31

This collection of values is drawn from paper PMC5819902.
